Reference source: ChEMBL document CHEMBL4610025

# Tested System: Growth/differentiation factor 8 (Homo sapiens) (UniProt O14793)
# Sequence (O14793 267-375 limits assumed): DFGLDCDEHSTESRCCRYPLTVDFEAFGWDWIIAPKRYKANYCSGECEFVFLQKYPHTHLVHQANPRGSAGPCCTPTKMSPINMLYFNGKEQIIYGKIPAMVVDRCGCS
# Assay Explanation: Inhibition of myostatin (unknown origin) expressed in HEK293 cells at 10 uM incubated for 4 hrs by dual luciferase reporter gene assay
# Type: cell-based
Active and inactive are the calls of the source. The rule behind the calls is not given here. Residues, ends and D or L forms follow the SMILES beside them.
Property Label: inhibition

Memo: CC[C@H](C)[C@H](NC(=O)[C@H](CCSC)NC(=O)[C@H](Cc1c[nH]c2ccccc12)NC(=O)[C@H](CCCCN)NC(=O)[C@H](Cc1ccccc1)NC(=O)[C@H](C)NC(=O)[C@@H](NC(=O)[C@H](CC(N)=O)NC(=O)[C@H](CC(=O)O)NC(=O)[C@H](CC(N)=O)NC(=O)[C@@H](N)C(C)C)[C@@H](C)O)C(=O)N[C@@H](Cc1ccccc1)C(=O)N[C@@H](CC(N)=O)C(=O)NCC(N)=O (H-VNDNTAFKWMIFNG-NH2) , reported inhibition: inactive

Memo: CC[C@H](C)[C@H](NC(=O)[C@H](CCSC)NC(=O)[C@H](Cc1c[nH]c2ccccc12)NC(=O)[C@H](CCCCN)NC(=O)[C@H](Cc1ccccc1)NC(=O)[C@H](CC(C)C)NC(=O)[C@@H](NC(=O)[C@H](CC(N)=O)NC(=O)[C@H](CC(=O)O)NC(=O)[C@@H](N)CC(N)=O)[C@@H](C)O)C(=O)N[C@@H](Cc1ccccc1)C(=O)N[C@@H](CC(N)=O)C(=O)NCC(N)=O (H-NDNTLFKWMIFNG-NH2) , reported inhibition: inactive
